Data provenance is ChEMBL document CHEMBL3407356.

SYSTEM: Prostaglandin G/H synthase 2 (Homo sapiens)
Sequence (P35354 whole entry): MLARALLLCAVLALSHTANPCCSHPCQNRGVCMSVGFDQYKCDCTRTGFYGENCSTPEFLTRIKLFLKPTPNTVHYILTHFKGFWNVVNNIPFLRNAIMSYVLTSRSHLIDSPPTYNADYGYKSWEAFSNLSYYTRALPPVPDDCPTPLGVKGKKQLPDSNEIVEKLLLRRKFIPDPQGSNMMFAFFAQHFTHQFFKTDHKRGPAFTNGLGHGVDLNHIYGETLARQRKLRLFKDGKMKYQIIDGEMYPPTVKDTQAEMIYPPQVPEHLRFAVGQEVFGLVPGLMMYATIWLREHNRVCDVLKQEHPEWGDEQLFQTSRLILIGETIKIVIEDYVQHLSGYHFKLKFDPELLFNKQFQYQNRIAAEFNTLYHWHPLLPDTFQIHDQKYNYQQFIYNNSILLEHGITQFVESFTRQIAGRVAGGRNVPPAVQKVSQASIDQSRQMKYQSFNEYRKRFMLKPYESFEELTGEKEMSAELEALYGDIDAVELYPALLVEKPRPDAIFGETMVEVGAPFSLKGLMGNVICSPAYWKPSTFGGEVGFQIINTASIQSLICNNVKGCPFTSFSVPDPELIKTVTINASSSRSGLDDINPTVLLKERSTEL
ASSAY PROCEDURE: Inhibition of human recombinant COX2 by ELISA
PARAMETER: pIC50
Scale note: pIC50 = -log10(concentration in M).

Here is how some compounds turned out for pIC50.
>>> measured_number("Cc1cccc(C2C3CCc4ccccc4C3=NN2c2ccc(S(N)(=O)=O)cc2)c1 (stereo not given)")
5.61
>>> measured_number("COc1ccc(C2C3COc4ccccc4C3=NN2c2ccc(S(N)(=O)=O)cc2)cc1 (stereo not given)")
5.99
>>> measured_number("NS(=O)(=O)c1ccc(N2N=C3c4ccccc4CCC3C2c2ccc(F)cc2)cc1 (stereo not given)")
4.81
>>> measured_number("NS(=O)(=O)c1ccc(N2N=C3c4ccccc4CCC3C2c2ccc(Cl)cc2Cl)cc1 (stereo not given)")
4.49

# context switch: different compound, same pIC50
Quote Prostaglandin G/H synthase 2 (Homo sapiens) pIC50 for entry NS(=O)(=O)c1ccc(N2N=C3c4ccccc4OCC3C2c2ccc(Cl)cc2)cc1 (stereo not given) .
5.08
